biological target: bradykinin receptor 1 (B1R) of the rat (Rattus norvegicus); construct: expressed in transfected cells; host or cells: CHO K1 cells; assay: Functional study on the bradykinin receptor 1 (B1R), rat: FLIPR Ca2+ influx assay; assay type: cell-based; details: test substance 10 μM; CHO K1 cells transfected with rat B1R; Des-Arg9-bradykinin at EC80; Ca2+ influx (Fluo-4, FLIPR); read-out: B1R antagonism, rat [10 μM] % inhibition
Sequence (P97583 whole entry): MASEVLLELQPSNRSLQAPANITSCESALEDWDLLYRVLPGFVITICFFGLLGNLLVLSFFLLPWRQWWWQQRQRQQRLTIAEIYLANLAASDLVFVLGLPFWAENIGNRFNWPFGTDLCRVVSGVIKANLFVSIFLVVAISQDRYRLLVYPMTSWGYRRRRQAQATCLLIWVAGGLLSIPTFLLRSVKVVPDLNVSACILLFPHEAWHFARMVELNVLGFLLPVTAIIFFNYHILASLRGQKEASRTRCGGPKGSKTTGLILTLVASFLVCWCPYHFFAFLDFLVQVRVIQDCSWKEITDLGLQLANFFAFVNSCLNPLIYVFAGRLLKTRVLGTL
readoutKind: inhibition at 10 µM (%)
Just the number in %, nothing appended.

So the reported inhibition at 10 µM for COc1ccc(S(=O)(=O)N2CCc3ccccc3C2CC(=O)NCC2CCC(C(CCc3ccccc3)N(C)C)CC2)cc1 (stereo not shown) , on bradykinin receptor 1 (B1R) of the rat (Rattus norvegicus), turned out to be 73

So the reported inhibition at 10 µM for CN(C)C(CCc1ccccc1)C1CCC(CNC(=O)CC2c3ccccc3CCN2S(=O)(=O)c2ccc(Cl)c(Cl)c2)CC1 (stereo not shown) , on bradykinin receptor 1 (B1R) of the rat (Rattus norvegicus), turned out to be 58

So the reported inhibition at 10 µM for O=C(CC1CCCCN1S(=O)(=O)c1ccc(Cl)c(Cl)c1)NC1CCC(C(CCc2ccccc2)N2CCOCC2)CC1 (stereo not shown) , on bradykinin receptor 1 (B1R) of the rat (Rattus norvegicus), turned out to be 25

So the reported inhibition at 10 µM for CN(C)C(c1ccccc1)C1CCC(CNC(=O)CC2CCCCN2S(=O)(=O)c2cccc(C(F)(F)F)c2)CC1 (stereo not shown) , on bradykinin receptor 1 (B1R) of the rat (Rattus norvegicus), turned out to be 9

So the reported inhibition at 10 µM for O=C(CC1CCCN1S(=O)(=O)c1ccc(Cl)c(Cl)c1)NC1CCC(C(CCc2ccccc2)N2CCOCC2)CC1 (stereo not shown) , on bradykinin receptor 1 (B1R) of the rat (Rattus norvegicus), turned out to be 10

So the reported inhibition at 10 µM for CN(C)C(c1cccc(F)c1)C1CCC(NC(=O)CC2c3ccccc3CCN2S(=O)(=O)c2ccc(Cl)c(Cl)c2)CC1 (stereo not shown) , on bradykinin receptor 1 (B1R) of the rat (Rattus norvegicus), turned out to be 73

So the reported inhibition at 10 µM for COc1ccc(S(=O)(=O)N2CCc3ccccc3C2CC(=O)NC2CCC(C(c3cccs3)N(C)C)CC2)cc1 (stereo not shown) , on bradykinin receptor 1 (B1R) of the rat (Rattus norvegicus), turned out to be 57
